Reported values of CC50 at 168 h for individual entries
Experiment: Cytotoxicity against […] infected with JEV-SA14 incubated for 7 days by CellTiter 96 luminescent cell viability assay
Assay type: toxicity, cell-based
Conditions: time 7 day
recorded_endpoint: CC50 at 168 h (nM)

smiles_string: Cc1nnc(Sc2c(Cl)cc(C(=O)c3ccc(C(F)(F)F)cc3O)n2-c2c(C(=O)c3ccc(C(F)(F)F)cc3O)[nH]c(Cl)c2Cl)s1
recorded_endpoint: CC50 at 168 h
inequality_sign: =
experimental_result: 1720
--
smiles_string: O=C(c1ccc(C(F)(F)F)cc1O)c1[nH]c(Cl)c(Cl)c1-n1c(C(=O)c2ccc(C(F)(F)F)cc2O)cc(Cl)c1Sc1nc2ccccc2o1
recorded_endpoint: CC50 at 168 h
inequality_sign: =
experimental_result: 1800
--
smiles_string: C#C[C@@]1(O)[C@H](O)[C@@H](CO)O[C@H]1n1ccc2c(N)ncnc21
recorded_endpoint: CC50 at 168 h
inequality_sign: >
experimental_result: 20000
--
smiles_string: O=C(c1ccc(C(F)(F)F)cc1O)c1[nH]c(Cl)c(Cl)c1-n1c(C(=O)c2ccc(C(F)(F)F)cc2O)cc(Cl)c1SCc1ccccn1
recorded_endpoint: CC50 at 168 h
inequality_sign: =
experimental_result: 260
--
smiles_string: [N-]=[N+]=NCCCSc1c(Cl)cc(C(=O)c2ccc(C(F)(F)F)cc2O)n1-c1c(C(=O)c2ccc(C(F)(F)F)cc2O)[nH]c(Cl)c1Cl
recorded_endpoint: CC50 at 168 h
inequality_sign: =
experimental_result: 310
--
smiles_string: O=C(c1ccc(C(F)(F)F)cc1O)c1[nH]c(Cl)c(Cl)c1-n1c(C(=O)c2ccc(C(F)(F)F)cc2O)cc(Cl)c1Sc1nc[nH]n1
recorded_endpoint: CC50 at 168 h
inequality_sign: =
experimental_result: 18700
--
smiles_string: O=C(c1ccc(C(F)(F)F)cc1O)c1[nH]c(Cl)c(Cl)c1-n1c(C(=O)c2ccc(C(F)(F)F)cc2O)cc(Cl)c1Sc1cccs1
recorded_endpoint: CC50 at 168 h
inequality_sign: =
experimental_result: 230
--
smiles_string: O=C(c1ccc(C(F)(F)F)cc1O)c1[nH]c(Cl)c(Cl)c1-n1c(C(=O)c2ccc(C(F)(F)F)cc2O)cc(Cl)c1SCCc1ccccn1
recorded_endpoint: CC50 at 168 h
inequality_sign: =
experimental_result: 610

====

Experiment: Cytotoxicity against human RD cells infected with CA16 incubated for 3 days by CellTiter 96 luminescent cell viability assay
Assay type: toxicity, cell-based
Conditions: time 3 day
recorded_endpoint: log10(CC50 at 72 h) (log10 of the value in µM)

smiles_string: O=C(c1ccc(C(F)(F)F)cc1O)c1[nH]c(Cl)c(Cl)c1-n1c(C(=O)c2ccc(C(F)(F)F)cc2O)cc(Cl)c1Sc1nc2ccccc2o1
log10(CC50 at 72 h): 0.19

smiles_string: O=C(c1ccc(C(F)(F)F)cc1O)c1[nH]c(Cl)c(Cl)c1-n1c(C(=O)c2ccc(C(F)(F)F)cc2O)cc(Cl)c1Sc1nc2ccccc2[nH]1
log10(CC50 at 72 h): 1.66

smiles_string: O=C(c1ccc(C(F)(F)F)cc1O)c1[nH]c(Cl)c(Cl)c1-n1c(C(=O)c2ccc(C(F)(F)F)cc2O)cc(Cl)c1Sc1cnccn1
log10(CC50 at 72 h): 1.04

smiles_string: O=C(c1ccc(C(F)(F)F)cc1O)c1[nH]c(Cl)c(Cl)c1-n1c(C(=O)c2ccc(C(F)(F)F)cc2O)cc(Cl)c1Sc1nnnn1CCO
log10(CC50 at 72 h): 1.18

smiles_string: O=C(c1ccc(C(F)(F)F)cc1O)c1[nH]c(Cl)c(Cl)c1-n1c(C(=O)c2ccc(C(F)(F)F)cc2O)cc(Cl)c1SCc1cccnc1
log10(CC50 at 72 h): -0.07

smiles_string: O=C(c1ccc(C(F)(F)F)cc1O)c1[nH]c(Cl)c(Cl)c1-n1c(C(=O)c2ccc(C(F)(F)F)cc2O)cc(Cl)c1Sc1nc2ccccc2s1
log10(CC50 at 72 h): 0.16

smiles_string: O=C(c1ccc(C(F)(F)F)cc1O)c1[nH]c(Cl)c(Cl)c1-n1c(C(=O)c2ccc(C(F)(F)F)cc2O)cc(Cl)c1Sc1cccs1
log10(CC50 at 72 h): -0.96

smiles_string: O=C(c1ccc(C(F)(F)F)cc1O)c1[nH]c(Cl)c(Cl)c1-n1c(C(=O)c2ccc(C(F)(F)F)cc2O)cc(Cl)c1Sc1ncccn1
log10(CC50 at 72 h): -0.28

smiles_string: O=C(c1ccc(C(F)(F)F)cc1O)c1[nH]c(Cl)c(Cl)c1-n1c(C(=O)c2ccc(C(F)(F)F)cc2O)cc(Cl)c1Sc1nc2cccnc2[nH]1
log10(CC50 at 72 h): 1.30

smiles_string: O=C(c1ccc(C(F)(F)F)cc1O)c1[nH]c(Cl)c(Cl)c1-n1c(C(=O)c2ccc(C(F)(F)F)cc2O)cc(Cl)c1Sc1cccc[n+]1[O-]
log10(CC50 at 72 h): 0.93

smiles_string: O=C(c1ccc(C(F)(F)F)cc1O)c1[nH]c(Cl)c(Cl)c1-n1c(C(=O)c2ccc(C(F)(F)F)cc2O)cc(Cl)c1SCc1ccccn1
log10(CC50 at 72 h): -0.47

smiles_string: O=C(c1ccc(C(F)(F)F)cc1O)c1[nH]c(Cl)c(Cl)c1-n1c(C(=O)c2ccc(C(F)(F)F)cc2O)cc(Cl)c1SCCc1ccccn1
log10(CC50 at 72 h): -0.46

smiles_string: O=C(c1ccc(C(F)(F)F)cc1O)c1[nH]c(Cl)c(Cl)c1-n1c(C(=O)c2ccc(C(F)(F)F)cc2O)cc(Cl)c1SCc1ncccn1
log10(CC50 at 72 h): -0.08
